tested on: Klebsiella aerogenes DSM 30053; assay: fold change of Putrescine concentration vs plate DMSO controls (fold change (ratio)); higher = more amine produced, active = hit call of the paper (significant change in both replicates, either direction); details: 20 µM; incubation time: 27 h, anaerobic, 37 °C
Where a name gives a salt, the structure may show the parent alone.
Quick list: fold change of Putrescine concentration per entry.
Enter a number only.

Illustrative cases are given below, each with its answer.
| compound | fold change of Putrescine concentration |
| --- | --- |
| O=P(Oc1ccccc1)(Oc1ccccc1)Oc1ccccc1 | 0.842 |
| COC(=O)Nc1nc2ccccc2[nH]1 | 1 |
| C[C@]12CC[C@H](O)CC1=CC[C@@H]1[C@@H]2CC[C@]2(C)C(=O)CC[C@@H]12 | 0.999 |
| CCCC1COC(Cn2cncn2)(c2ccc(Cl)cc2Cl)O1 (stereo not given) | 0.946 |
| C=C1CC[C@@]2(O)[C@H]3Cc4ccc(O)c5c4[C@@]2(CCN3CC2CC2)[C@H]1O5 [Nalmefene hydrochloride] | 1.02 |
| CCNc1nc(Cl)nc(NC(C)C)n1 | 0.971 |

Q: Return fold change of Putrescine concentration measured with Klebsiella aerogenes DSM 30053 given this compound: C[N+]1(C)CCOC(O)(c2ccc(-c3ccc(C4(O)C[N+](C)(C)CCO4)cc3)cc2)C1 (stereo not given) [Hemicholinium bromide]
A: 0.995

Q: Try O=C(CCCN1CCC(n2c(=O)[nH]c3ccccc32)CC1)c1ccc(F)cc1 next.
A: 1.02

Q: Now consider CC(=O)NC1CCSC1=O (stereo not given) .
A: 0.93

Q: Next compound up: O=C1c2ccccc2C(=O)N1SC(Cl)(Cl)Cl
A: 1

* * *

test system: Clostridium sporogenes DSM 1664; assay: growth (OD595) fold change vs plate DMSO controls (fold change (ratio)); higher = more growth; settings: 20 µM; incubation time: 27 h, anaerobic, 37 °C
Counter-ions that a name gives are not always drawn.
measure: growth

Below are worked cases with known answers.
| compound | growth |
| --- | --- |
| C=CCN1CC[C@]23c4c5ccc(O)c4O[C@H]2C(=O)CC[C@@]3(O)[C@H]1C5 [Naloxone hydrochloride] | 1.22 |
| CC(C)N(C)S(=O)(=O)NC(=O)c1cc(-n2c(=O)cc(C(F)(F)F)n(C)c2=O)c(F)cc1Cl | 0.954 |
| COC(=O)N(OC)c1ccccc1COc1ccn(-c2ccc(Cl)cc2)n1 | 0.99 |
| CC(C)C[C@H]1C(=O)N2CCC[C@H]2[C@]2(O)O[C@](NC(=O)[C@@H]3C=C4c5cccc6[nH]c(Br)c(c56)C[C@H]4N(C)C3)(C(C)C)C(=O)N12 [Bromocryptine mesylate] | 1.19 |
| CCN(CC)C(C)C(=O)c1ccccc1 (stereo not given) [Amfepramone hydrochloride] | 1.04 |
| c1cc2c3c(cccc3c1)CC2 | 1.04 |
| CN/C(=N/CC1CCOC1)N[N+](=O)[O-] (stereo not given) | 1.07 |
| CCC(=O)O[C@@](Cc1ccccc1)(c1ccccc1)[C@@H](C)CN(C)C [Levopropoxyphene napsylate] | 1.06 |
| C=CC[C@]1(O)CC[C@H]2[C@@H]3CCC4=CC(=O)CCC4=C3C=C[C@@]21C | 0.998 |
| COc1cc2c(c(OC)c1OC)-c1ccc(OC)c(=O)cc1[C@@H](NC(C)=O)CC2 | 0.992 |

Q: Quick one: growth of CC(=O)OCC1=C(C(=O)O)N2C(=O)[C@@H](N)[C@H]2SC1 ?
A: 1.05

Q: How about this compound: CCOC(=O)CC(SP(=S)(OC)OC)C(=O)OCC (stereo not given)
A: 0.873

Q: Please answer likewise for CC(C)(C)c1ccc(CSc2cnn(C(C)(C)C)c(=O)c2Cl)cc1
A: 0.838

Q: Request: COc1ccc(Cc2nccc3cc(OC)c(OC)cc23)cc1OC [Papaverine hydrochloride]
A: 1.17
